Data origin: ChEMBL document CHEMBL5518248

# Tested on: Klebsiella pneumoniae
# test.description: Antibacterial activity against Klebsiella pneumoniae 15-5 assessed as inhibition of bacterial growth measured after 18 to 20 hrs by broth microdilution method
# Type: functional
# test.conditions: time 18-20 hrs
quantity: MIC (µg/mL)

| chemical.string | observed.value |
| --- | --- |
| C=CC(=O)N[C@@H]1Cc2ccc(OCCN)c(c2)-c2cc(ccc2OCCN)[C@H](N(C)C(=O)[C@H](CCN)NC(=O)c2cnc(-c3ccc(C(C)(C)C)cc3)nc2C)C(=O)N[C@@H](C)C(=O)N1.O=C(O)C(F)(F)F.O=C(O)C(F)(F)F.O=C(O)C(F)(F)F.O=C(O)C(F)(F)F | 32 |
| CCCCCCCSSCc1ccc(-c2ncc(C(=O)N[C@@H](CCN)C(=O)N(C)[C@@H]3C(=O)N[C@@H](C)C(=O)N[C@H](C(=O)NCC#N)Cc4ccc(OCCN)c(c4)-c4cc3ccc4OCCN)c(C)n2)cc1.O=C(O)C(F)(F)F.O=C(O)C(F)(F)F.O=C(O)C(F)(F)F.O=C(O)C(F)(F)F | 2 |
| Cc1nc(-c2ccc(CSSCCC(F)(F)F)cc2)ncc1C(=O)N[C@@H](CCN)C(=O)N(C)[C@@H]1C(=O)N[C@@H](C)C(=O)N[C@H](C(=O)NCC#N)Cc2ccc(OCCN)c(c2)-c2cc1ccc2OCCN.O=C(O)C(F)(F)F.O=C(O)C(F)(F)F.O=C(O)C(F)(F)F.O=C(O)C(F)(F)F | 0.25 |
| Cc1nc(-c2ccc(C(C)(C)C)cc2)ncc1CN[C@@H](CCN)C(=O)N(C)[C@@H]1C(=O)N[C@@H](C)C(=O)N[C@H](C(=O)NCC#N)Cc2ccc(OCCN)c(c2)-c2cc1ccc2OCCN.O=C(O)C(F)(F)F.O=C(O)C(F)(F)F.O=C(O)C(F)(F)F.O=C(O)C(F)(F)F | 16 |

----------
# Test system: Klebsiella pneumoniae
# test.description: Antibacterial activity against Klebsiella pneumoniae 15-1 assessed as inhibition of bacterial growth measured after 18 to 20 hrs by broth microdilution method
# Type: functional
# test.conditions: time 18-20 hrs
quantity: MIC (µg/mL)

| chemical.string | sign | observed.value |
| --- | --- | --- |
| Cc1nc(-c2ccc(C(C)(C)C)cc2)ncc1C(=O)N[C@@H](CCN)C(=O)N(C)[C@@H]1C(=O)N[C@@H](C)C(=O)N[C@H](C(=O)NCC#N)Cc2ccc(OCCN)c(c2)-c2cc1ccc2OCCN.Cl.Cl.Cl.Cl | ≤ | 0.03 |
| Cc1nc(-c2ccc(C(C)(C)C)cc2)ncc1C(=O)C(=O)N[C@@H](CCN)C(=O)N(C)[C@@H]1C(=O)N[C@@H](C)C(=O)N[C@H](C(=O)NCC#N)Cc2ccc(OCCN)c(c2)-c2cc1ccc2OCCN.O=C(O)C(F)(F)F.O=C(O)C(F)(F)F.O=C(O)C(F)(F)F.O=C(O)C(F)(F)F | = | 8 |
| Cc1nc(-c2ccc(CSSC(C)(C)C)c(F)c2)ncc1C(=O)N[C@@H](CCN)C(=O)N(C)[C@@H]1C(=O)N[C@@H](C)C(=O)N[C@H](C(=O)NCC#N)Cc2ccc(OCCN)c(c2)-c2cc1ccc2OCCN.O=C(O)C(F)(F)F.O=C(O)C(F)(F)F.O=C(O)C(F)(F)F.O=C(O)C(F)(F)F | = | 0.25 |
| Cc1nc(-c2ccc(C(C)(C)C)cc2)ncc1C(=O)N[C@@H](CCN)C(=O)N(C)[C@@H]1C(=O)N[C@@H](C)C(=O)N[C@H](NC(=O)CC#N)Cc2ccc(OCCN)c(c2)-c2cc1ccc2OCCN.O=C(O)C(F)(F)F.O=C(O)C(F)(F)F.O=C(O)C(F)(F)F.O=C(O)C(F)(F)F | = | 32 |
